Molecular target: human CD28 (human, UniProt P10747 19-220, On cells CD28 is a disulfide linked homodimer and a glycoprotein; one copy of the chain is given.)
Sequence (P10747 19-220 limits assumed): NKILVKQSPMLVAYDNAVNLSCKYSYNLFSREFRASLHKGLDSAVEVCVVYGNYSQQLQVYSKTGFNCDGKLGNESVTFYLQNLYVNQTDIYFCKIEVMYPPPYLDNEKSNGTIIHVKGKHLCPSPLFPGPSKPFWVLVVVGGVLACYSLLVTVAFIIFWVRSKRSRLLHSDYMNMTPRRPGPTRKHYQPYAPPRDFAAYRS
Assay: cell-based or functional assay
Catalogue of binders with associated Expansion Index (no anti-CD3)

| BINDER | QUANTITY | RESULT |
| --- | --- | --- |
| exemplary anti-CD28 antibody AB8 (antibody, V domains shown, Mouse hybridoma monoclonal antibody; Conjugated to PE in the staining assays; also called antibody 8; clone 8) VH: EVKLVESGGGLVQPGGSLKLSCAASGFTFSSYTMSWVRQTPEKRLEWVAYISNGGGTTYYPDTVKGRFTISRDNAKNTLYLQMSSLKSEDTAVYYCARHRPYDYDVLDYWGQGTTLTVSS VL: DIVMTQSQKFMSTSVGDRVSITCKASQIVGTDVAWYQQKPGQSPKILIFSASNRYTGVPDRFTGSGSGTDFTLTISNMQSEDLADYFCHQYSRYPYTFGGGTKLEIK | Expansion Index (no anti-CD3) | 2.85 |

For the next question, use this binder.
In: State its Expansion Index (no anti-CD3) for this binder: exemplary anti-CD28 antibody AB4 (antibody, V domains shown, Mouse hybridoma monoclonal antibody; Conjugated to PE in the staining assays; also called antibody 4; clone 4) VH: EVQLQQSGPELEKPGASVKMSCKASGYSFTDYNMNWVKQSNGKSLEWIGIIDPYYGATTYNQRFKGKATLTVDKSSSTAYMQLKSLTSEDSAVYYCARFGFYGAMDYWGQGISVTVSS VL: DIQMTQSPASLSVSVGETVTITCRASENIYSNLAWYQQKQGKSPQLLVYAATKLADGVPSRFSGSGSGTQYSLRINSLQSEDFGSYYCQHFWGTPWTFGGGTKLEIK
Out: 1
